# System Tested: Electrophorus electricus AChE (EeAChE) (Electrophorus electricus, UniProt O42275)
# Construct: purchased Sigma-Aldrich (Milan, Italy)
# Sequence (O42275 24-633): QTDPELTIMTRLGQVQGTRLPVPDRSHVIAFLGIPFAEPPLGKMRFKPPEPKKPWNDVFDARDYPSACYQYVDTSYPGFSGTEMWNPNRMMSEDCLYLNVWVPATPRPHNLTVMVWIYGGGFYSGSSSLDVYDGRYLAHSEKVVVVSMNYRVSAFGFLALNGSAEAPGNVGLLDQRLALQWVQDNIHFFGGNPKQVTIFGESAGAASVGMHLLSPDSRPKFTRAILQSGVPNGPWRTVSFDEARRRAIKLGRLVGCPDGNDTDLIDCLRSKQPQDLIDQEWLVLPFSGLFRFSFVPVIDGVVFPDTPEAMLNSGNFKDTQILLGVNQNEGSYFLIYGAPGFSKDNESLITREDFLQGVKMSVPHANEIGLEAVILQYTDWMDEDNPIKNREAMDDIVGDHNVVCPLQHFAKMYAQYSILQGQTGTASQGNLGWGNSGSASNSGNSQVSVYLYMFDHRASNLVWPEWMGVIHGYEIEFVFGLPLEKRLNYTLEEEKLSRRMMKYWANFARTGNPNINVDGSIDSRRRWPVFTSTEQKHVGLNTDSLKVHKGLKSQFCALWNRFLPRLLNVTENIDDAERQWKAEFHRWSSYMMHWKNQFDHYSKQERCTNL
# Assay Info: Ellman's spectrophotometric method, percent inhibition of EeAChE (zero time and after 1 h incubation)
# Format: biochemical
# Test Context: read-out: % Inhibition vs. EeAChE ± SD, [I] 9 µM; 0.0833 U/mL enzyme, 100 µM acetylthiocholine
Examples of compounds with documented inhibition at 9 µM follow.
Supply the numeric figure in %, leaving out any unit text.

>>> recorded_measurement("O=C(Cc1ccc(Oc2ccccc2)cc1)NCCCCCCNc1ncccn1 [Compound 5]")
10.8
>>> recorded_measurement("O=C(NCCCCCCNc1ncccn1)c1ccc(Cl)cc1 [Compound 8]")
9.9
>>> recorded_measurement("COc1ccccc1C(=O)NCCCCCCNc1ncccn1 [Compound 9]")
7.2
>>> recorded_measurement("O=C(Cc1ccccc1)NCCCCCCNc1ncccn1 [Compound 4]")
5
>>> recorded_measurement("O=C(NCCCCCCNc1ccccn1)c1ccccc1 [Compound 12, N-(6-(pyridin-2-ylamino)hexyl)benzamide]")
34

In one line, give reported inhibition at 9 µM of the entry O=C(C=Cc1ccccc1)NCCCCCCNc1ccccn1 [Compound 15] .
45.4

In one line, give reported inhibition at 9 µM of the entry O=C(NCCCCCCNc1ncccn1)c1ccc(Br)cc1 [Compound 7] .
11.2

In one line, give reported inhibition at 9 µM of the entry O=C(Cc1ccc(Oc2ccccc2)cc1)NCCCCCCNc1ccccn1 [Compound 14] .
42.6

In one line, give reported inhibition at 9 µM of the entry O=C(Cc1ccccc1)NCCCCCCNc1ccccn1 [Compound 13] .
46.7
